Where do these numbers come from? They come from patent US20210395239A1.

- subject-of-test: hTLR9 (Homo sapiens)
- Sequence (Q9NR96 26-1032): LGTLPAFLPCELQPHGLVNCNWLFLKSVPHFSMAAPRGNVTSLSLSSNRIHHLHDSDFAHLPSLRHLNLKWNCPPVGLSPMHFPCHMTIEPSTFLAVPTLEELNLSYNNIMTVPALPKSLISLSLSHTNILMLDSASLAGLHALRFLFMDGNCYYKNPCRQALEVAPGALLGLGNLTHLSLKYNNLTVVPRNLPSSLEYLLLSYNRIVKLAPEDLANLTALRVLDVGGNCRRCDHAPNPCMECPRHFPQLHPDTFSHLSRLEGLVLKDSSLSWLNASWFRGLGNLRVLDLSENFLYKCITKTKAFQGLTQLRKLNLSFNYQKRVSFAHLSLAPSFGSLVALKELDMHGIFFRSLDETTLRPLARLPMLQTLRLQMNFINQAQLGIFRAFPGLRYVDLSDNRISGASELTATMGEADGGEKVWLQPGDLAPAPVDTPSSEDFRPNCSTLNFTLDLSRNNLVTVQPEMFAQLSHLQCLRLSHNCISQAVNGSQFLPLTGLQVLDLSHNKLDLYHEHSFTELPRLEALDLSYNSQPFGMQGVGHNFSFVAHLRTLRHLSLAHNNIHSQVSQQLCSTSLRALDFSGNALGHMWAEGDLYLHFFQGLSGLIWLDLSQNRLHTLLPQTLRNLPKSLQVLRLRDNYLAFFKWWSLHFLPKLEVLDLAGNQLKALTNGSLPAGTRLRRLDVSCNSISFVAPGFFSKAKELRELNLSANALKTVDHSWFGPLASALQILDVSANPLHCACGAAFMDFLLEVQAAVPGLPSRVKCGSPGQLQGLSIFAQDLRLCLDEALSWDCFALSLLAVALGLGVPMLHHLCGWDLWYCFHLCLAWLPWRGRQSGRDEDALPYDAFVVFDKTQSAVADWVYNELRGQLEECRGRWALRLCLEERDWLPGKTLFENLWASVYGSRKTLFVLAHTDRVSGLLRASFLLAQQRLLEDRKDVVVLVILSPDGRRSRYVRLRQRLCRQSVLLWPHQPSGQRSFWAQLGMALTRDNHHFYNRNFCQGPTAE
- method-summary: HEK293-Blue-hTLR-9 cells assay (SEAP reporter, ODN2006 stimulation)
- Format: cell-based
- Parameters: host or cells: HEK293 (HEK-Blue hTLR9)
- measurement-setup: HEK293-Blue-hTLR9 cells, ODN2006, 20 hrs; read-out: HEK/hTLR9 IC50
recorded-metric: pIC50
Keep in mind that pIC50 stands for -log10 of concentration in molar terms.

Worked examples, 3 compounds total:
[2H]c1ccc2c(N3C[C@H](CN4CCN(c5nc(C)cc(N6CC(C)(N)C6)n5)CC4)O[C@H](C)C3)ccc(C#N)c2n1 :: 7.25
C[C@@H]1CN(c2ccc(C#N)c3ncccc23)C[C@H](CN2CCN(c3ccnc(N4CCN(C(=O)C5CCN5)CC4)n3)CC2)O1 (stereo partly shown) :: 7.15
CO[C@H]1CN(c2cc(C)nc(N3CCN(C[C@H]4CN(c5ccc(C#N)c6nccnc56)C[C@@H](C)O4)CC3)n2)C[C@@H]1N :: 7.15

For the compound shown here, C[C@@H]1CN(c2cc(=O)n(C)c3ncccc23)C[C@H](CN2CC(c3ccc(N4CCNCC4)cc3)C2)O1 , give the reported pIC50.
7.46

So what's the measured pIC50 for this one? C[C@@H]1CN(c2ccc(C#N)c3ncccc23)C[C@H](CN2CCN(c3ccnc(N4CCN(C)CC4)n3)CC2)O1
7.35

Please give the measured pIC50 for this compound: Cc1ccc(N2C[C@H](CN3CCN(c4ccnc(N5CCN[C@H](C)C5)n4)CC3)O[C@H](C)C2)c2nccnc12
6.74

GET /values?readout=pIC50&item= C[C@@H]1CN(c2ccc(C#N)n3ncc(F)c23)C[C@H](CN2CCN(c3ccc(N[C@H]4CNC[C@H]4F)nc3)CC2)O1
7.34
